Listed compounds paired with reported log10 of GI50
test system: NCI-H460; assay: cells; design: species or system JFCR39 human cancer cell lines; JFCR39 panel growth inhibition, sulforhodamine B total protein after 48 h; details: Homo sapiens, NCI-H460, 48 h
Measurement kind: log10 of GI50 (log10 of the value in nM)

Compound | log10 of GI50
C=C1CC[C@@H]2[C@](C)(CC[C@H]3O[C@H](C=C(C)C)C[C@@]23C)[C@@H]1Cc1c(OC)oc(C)c(C)c1=O [Compound 22, O-methylated higginsianin A] | 1.91
C=C1CCC2C(C)(CCC=C(C)C)C(O)CCC2(C)C1Cc1c(OC)oc(C)c(C)c1=O (centres unmarked) [Compound 11] | 1.94
C=C1CCC2C(C)(CC(=O)C=C(C)C)C(O)CCC2(C)C1Cc1c(O)c(C)c(C)oc1=O (centres unmarked) [Compound 7] | 4.06
C=C1CC[C@H]2[C@]3(C)C[C@@H](C=C(C)C)O[C@H]3CC[C@]2(C)[C@@H]1Cc1c(OC)oc(CO)c(C)c1=O [Compound 17] | 1.96
C=C1CCC2C(C)(CC(=O)C=C(C)C)C(O)CCC2(C)C1Cc1c(OC)oc(CO)c(C)c1=O (centres unmarked) [Compound 19] | 3.78

---

Listed compounds paired with reported Th-T assay signal, mean of three wells (Fig. 7a)
biological target: Aβ42 (Homo sapiens); assay: Th-T (thioflavin-T) assay of Aβ42 aggregation; assay type: biochemical; conditions: column suffix _10; reading M8
Sequence (P05067 672-713): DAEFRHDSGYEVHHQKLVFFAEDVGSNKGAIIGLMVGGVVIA
Measurement kind: Th-T assay signal, mean of three wells (Fig. 7a)

Compound | Numeric readout
C=C1CCC2C(C)(CCC=C(C)C)C(O)CCC2(C)C1Cc1c(OC)oc(CO)c(C)c1=O (centres unmarked) | 0.4315
C=C1CCC2C(C)(CCC=C(C)C)C(O)CCC2(C)C1Cc1c(OC)oc(CO)c(C(=O)OC)c1=O (centres unmarked) | 0.2367
C=C1CC[C@@H]2[C@](C)(CC[C@H]3O[C@H](C=C(C)C)C[C@@]23C)[C@@H]1Cc1c(OC)oc(CO)c(C(=O)OC)c1=O | 0.2225
C=C1CC[C@@H]2[C@](C)(CC[C@H]3O[C@H](C=C(C)C)C[C@@]23C)[C@@H]1Cc1c(OC)oc(CO)c(C)c1=O | 0.5644
C=C1CCC2C(C)(CCC=C(C)C)C(O)CCC2(C)C1Cc1c(OC)oc(C)c(C(=O)OC)c1=O (centres unmarked) | 0.3584

---

target: Aβ42 (Homo sapiens); experiment: Th-T (thioflavin-T) assay of Aβ42 aggregation; assay type: biochemical; conditions: column suffix _10; reading M97
Listed compounds paired with reported Fig. 7a Th-T reading, mean of three wells
Measurement kind: Fig. 7a Th-T reading, mean of three wells

Compound | Assayed target | Numeric readout
C=C1CCC2C(C)(CCC=C(C)C)C(O)CCC2(C)C1Cc1c(OC)oc(CO)c(C(=O)OC)c1=O (centres unmarked) | Aβ42 (Homo sapiens) | 1.551
C=C1CC[C@@H]2[C@](C)(CC[C@H]3O[C@H](C=C(C)C)C[C@@]23C)[C@@H]1Cc1c(OC)oc(CO)c(C)c1=O | Aβ42 (Homo sapiens) | 3.295
C=C1CCC2C(C)(CCC=C(C)C)C(O)CCC2(C)C1Cc1c(OC)oc(CO)c(C)c1=O (centres unmarked) | Aβ42 (Homo sapiens) | 2.923
C=C1CCC2C(C)(CCC=C(C)C)C(O)CCC2(C)C1Cc1c(OC)oc(C)c(C(=O)OC)c1=O (centres unmarked) | Aβ42 (Homo sapiens) | 2.823
C=C1CC[C@@H]2[C@](C)(CC[C@H]3O[C@H](C=C(C)C)C[C@@]23C)[C@@H]1Cc1c(OC)oc(CO)c(C(=O)OC)c1=O | Aβ42 (Homo sapiens) | 1.595
